# System: NF-kB reporter in Jurkat cells
# procedure.details: NF-kB reporter assay in Jurkat cells stimulated with aCD3/aCD28/PMA
# Assay type: cell-based
# condition.summary: Homo sapiens; Jurkat cells, 1 hr compound pre-incubation, aCD3/aCD28/PMA stimulation 4 hr, One-Glo readout; read-out: NF-kB Reporter Assay IC50
pIC50: −log10 of the molar value.
Each item that follows carries a reported pIC50.

>  <compound>
COc1ncc2cnn(C)c2c1NS(=O)(=O)c1cnn(-c2cc(N3CCCC3)ccn2)c1

>  <pIC50>
> 6.40

$$$$
>  <compound>
COC[C@](C)(F)c1ccnc(-n2cc(S(=O)(=O)Nc3cccc4cnn(C)c34)cn2)c1

>  <pIC50>
> 6.40

$$$$
>  <compound>
CN1CCn2ncc(-n3cc(S(=O)(=O)Nc4cccc5cnn(C)c45)cn3)c2C1

>  <pIC50>
< 5.60

$$$$
>  <compound>
COCCn1ncc2cccc(NS(=O)(=O)c3cnn(-c4cc(C5CC5)ccn4)c3)c21

>  <pIC50>
< 5.60

$$$$
>  <compound>
COc1ccc2cnn(C)c2c1NS(=O)(=O)c1cnn(-c2cc(C3(OC)CC4(CC4)C3)ccn2)c1

>  <pIC50>
> 6.40

$$$$
>  <compound>
CCC(O)c1ccnc(-n2cc(S(=O)(=O)Nc3c(OC)ccc4cnn(C)c34)cn2)c1 (single isomer, unassigned)

>  <pIC50>
> 6.40

$$$$
>  <compound>
[2H]c1nn(C([2H])([2H])[2H])c2c(NS(=O)(=O)c3cnn(-c4cc(C(F)(F)F)ccn4)c3)cccc12

>  <pIC50>
> 6.40

$$$$
>  <compound>
Cc1ccc2[nH]nc(C)c2c1NS(=O)(=O)c1cnn(-c2ccnc(C(F)(F)F)c2)c1

>  <pIC50>
5.60 to 6.00

$$$$
>  <compound>
CCc1ccc2cnn(C)c2c1NS(=O)(=O)c1cnn(-c2cc(OC)ccn2)c1

>  <pIC50>
< 5.60

$$$$
>  <compound>
O=S(=O)(Nc1cccc2cnn(C(F)F)c12)c1cnn(-c2cc(C(F)F)ccn2)c1

>  <pIC50>
< 5.60

$$$$
>  <compound>
COc1ccc2cnn(C)c2c1NS(=O)(=O)c1cnn(-c2ccc(C(F)(F)F)cn2)c1

>  <pIC50>
> 6.40

$$$$
>  <compound>
COc1ncc2cnn(C)c2c1NS(=O)(=O)c1cnn(-c2cc(N3CCC3)ccn2)c1

>  <pIC50>
> 6.40

$$$$
>  <compound>
C[C@H]1CN(c2ccnc(-n3cc(S(=O)(=O)Nc4cccc5cnn(C)c45)cn3)c2)C(=O)O1

>  <pIC50>
> 6.40

$$$$
>  <compound>
O=S(=O)(Nc1cccc2cnn(C(F)F)c12)c1cnn(-c2cc(Cl)ccn2)c1

>  <pIC50>
< 5.60

$$$$
>  <compound>
COc1ccc2cnn(C)c2c1NS(=O)(=O)c1cnn(-c2cc(C(F)(F)F)ccn2)c1C

>  <pIC50>
> 6.40

$$$$
